System: NOMO1
Experiment: cell viability relative to DMSO control; higher = less cytotoxic
Conditions: RPMI 5 mM glucose + 10% dialyzed FBS; 48 h; 46.1 µM
Values of cell viability strictly less than 40% map to Met, and values of at least 40% map to Not met.

compound="NC(=O)C1CCCc2c1[nH]c1ccc(Cl)cc21 (configuration not stated)" category=Met
compound="CC(O)(C#Cc1ccc2c(c1)N(c1nc(N)ncc1Cl)CC2)c1nccs1 (configuration not stated)" category="Not met"
compound=CCN(C(=O)C/1=C(O)/C2=C(C=CC=C2Cl)N(C)C1=O)C3=CC=CC=C3 category=Met
compound=CCCCCCCCCC(=O)N[C@@H](Cc1c[nH]c2ccccc12)C(=O)N[C@H](CC(N)=O)C(=O)N[C@@H](CC(=O)O)C(=O)N[C@@H]1C(=O)NCC(=O)N[C@@H](CCCN)C(=O)N[C@@H](CC(=O)O)C(=O)N[C@H](C)C(=O)N[C@@H](CC(=O)O)C(=O)NCC(=O)N[C@H](CO)C(=O)N[C@@H]([C@@H](C)CC(=O)O)C(=O)N[C@@H](CC(=O)c2ccccc2N)C(=O)O[C@@H]1C category="Not met"
compound=CCC(=O)N[C@H]1CC[C@H](C(=O)N(C)c2ccc(-c3nc4ccccc4o3)cc2)C1 category="Not met"
compound=COC[C@H](c1ccc(C(F)(F)F)cc1)N1CCN(C2(C)CCN(C(=O)c3c(C)ncnc3C)CC2)C[C@H]1C.O=C(O)/C=C\C(=O)O category="Not met"
compound=CN(C)c1nc(Cc2ccc(NC(=O)c3ccc4ccccc4c3)cc2)nc(Cl)c1CC(=O)O category="Not met"

----------
Tested on: SEM cells
Experiment: cell viability relative to DMSO control; higher = less cytotoxic
Conditions: RPMI 5 mM glucose + 10% FBS; 48 h; 0.0632 µM
Listed here are compounds together with their documented cell viability.
PARAMETER MEASURED: cell viability (%)

smiles_input=C/C(O)=C(\C#N)C(=O)Nc1cc(Br)ccc1Br tested_system="SEM cells" measurement_units=% result=119
smiles_input=CO/C1=C/C(C)=C\[C@@H](C)[C@@H](O)[C@@H](C)C/C(C)=C\C=C/[C@H](OC)[C@@H]([C@@H](C)[C@@H](O)[C@H](C)[C@@]2(O)C[C@@H](O)[C@H](C)[C@@H](C(C)C)O2)OC1=O tested_system="SEM cells" measurement_units=% result=29.2
smiles_input=Nc1nnc(-c2cccc(Cl)c2Cl)c(N)n1 tested_system="SEM cells" measurement_units=% result=97.6
smiles_input=CN1\C(=C(\O)C2=C(C=CC=C2)[S+]1([O-])=O)C(=O)NC3=CC=CC=N3 tested_system="SEM cells" measurement_units=% result=106
smiles_input=O=C(Nc1ncc(-c2cc(C(F)F)nn2-c2c(Cl)cccc2Cl)s1)C1CC1 tested_system="SEM cells" measurement_units=% result=127
smiles_input=N[S+](=O)([O-])c1cccc2c1C(=O)c1cccc(O)c1C2=O tested_system="SEM cells" measurement_units=% result=94.7
smiles_input=CCN(C(=O)C/1=C(O)/C2=C(C=CC=C2Cl)N(C)C1=O)C3=CC=CC=C3 tested_system="SEM cells" measurement_units=% result=89.5
smiles_input=O=C(O)/C=C/c1ccc(O)c(O)c1 tested_system="SEM cells" measurement_units=% result=110
smiles_input=CC(C)c1ccc(Cn2ccc3c4c(N)nc(NC5CC5)nc4ccc32)cc1 tested_system="SEM cells" measurement_units=% result=106
